These measurements were taken from patent US4237273A.

Experiment: Acute toxicity (LD50), 21 days observation
Type: in vivo
Settings: mouse, in vivo, po, BDF1 mice of both sexes, p.o., read-out: LD50 value p.o.
Reported LD50 at 504 h by item:
# value in mg/kg; strip the unit string

Examples with answers:
INPUT: # lookup: LD50 at 504 h of O=NN(CCCl)C(=O)NCCCl [Compound 6, 1,3-bis(2-chloroethyl)-1-nitrosourea, reference compound]
OUTPUT: 40

INPUT: # lookup: LD50 at 504 h of O=NN(CCCl)C(=O)NC[C@@H](O)[C@H](O)CN(N=O)C(=O)NCCCl (racemic)
OUTPUT: 130

---
INPUT: # lookup: LD50 at 504 h of O=NN(CCCl)C(=O)NC[C@@H](O)[C@@H](O)[C@H](O)[C@H](O)CNC(=O)N(CCCl)N=O
OUTPUT: 250

INPUT: # lookup: LD50 at 504 h of O=NN(CCCl)C(=O)NC[C@@H](O)[C@H](O)CNC(=O)N(CCCl)N=O (racemic)
OUTPUT: 75

INPUT: # lookup: LD50 at 504 h of O=NN(CCCl)C(=O)N[C@H]1C[C@@H](NC(=O)N(CCCl)N=O)[C@H](O)[C@@H](O)[C@@H]1O
OUTPUT: 100

====

Test: Acute toxicity (LD50), 21 days observation
Format: in vivo
Settings: mouse, in vivo, ip, BDF1 mice of both sexes, i.p., read-out: LD50 value i.p.
reported property: LD50 at 504 h (mg/kg)
# value in mg/kg; strip the unit string

Examples with answers:
INPUT: # lookup: LD50 at 504 h of O=NN(CCCl)C(=O)NC[C@@H](O)[C@H](O)CN(N=O)C(=O)NCCCl (racemic)
OUTPUT: 80

INPUT: # lookup: LD50 at 504 h of O=NN(CCCl)C(=O)N[C@H]1C[C@@H](NC(=O)N(CCCl)N=O)[C@H](O)[C@@H](O)[C@@H]1O
OUTPUT: 40

INPUT: # lookup: LD50 at 504 h of O=NN(CCCl)C(=O)NCCCl [Compound 6, 1,3-bis(2-chloroethyl)-1-nitrosourea, reference compound]
OUTPUT: 36

---
INPUT: # lookup: LD50 at 504 h of O=NN(CCCl)C(=O)NC[C@@H](O)[C@H](O)CNC(=O)N(CCCl)N=O (racemic)
OUTPUT: 40

INPUT: # lookup: LD50 at 504 h of O=NN(CCCl)C(=O)NC[C@@H](O)[C@@H](O)[C@H](O)[C@H](O)CNC(=O)N(CCCl)N=O
OUTPUT: 110
